target: UniProt:P52699; assay: Enzyme activity: determination of IC50, fluorescence assay with CCF2-FA substrate; format: biochemical; conditions: enzyme 2 pM, CCF2-FA 1.25 μM, 2 hours at 25° C.; read-out: IMP1 IC50
Sequence (P52699 19-246, looked up, species assumed): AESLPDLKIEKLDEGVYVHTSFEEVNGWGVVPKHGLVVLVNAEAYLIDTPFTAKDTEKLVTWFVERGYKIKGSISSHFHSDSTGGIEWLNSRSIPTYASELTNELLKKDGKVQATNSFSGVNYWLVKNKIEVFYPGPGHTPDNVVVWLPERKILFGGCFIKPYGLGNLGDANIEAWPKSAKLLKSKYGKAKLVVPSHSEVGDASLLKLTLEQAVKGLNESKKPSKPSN
pIC50: −log10 of the molar value.
Categorized via pIC50: low: < 6; moderate: ≥ 6 and < 7; high: ≥ 7

Field: example entries. Status: answers known.
CCC[C@H](C(=O)O)[C@H](Cc1cccc(C#N)c1)c1nn[nH]n1 [Example 41] : moderate
CCC[C@H](C(=O)O)[C@H](Cc1ccc(-c2ccc3ccnc(C#N)c3c2)nc1)c1nnn[nH]1 [Example 162] : moderate
CC(C)[C@H](C(=O)O)[C@H](Cc1ccc(NCCN)nc1)c1nnn[nH]1 [Example 140] : low
CC(C)C[C@H](C(=O)O)[C@H](Cc1ccc(C2CCNC2)nc1)c1nnn[nH]1 (stereo partly drawn) [Example 100] : low

(Q) Sort into band: CCC[C@H](C(=O)O)[C@H](Cc1ccc(-c2ccc3c(c2)CNC3)nc1)c1nnn[nH]1 [Example 95]
(A) low
